tested on: 786-0 renal; assay: NCI tumour cell line growth inhibition, 48 h
Measurement label: TGI

// solved cases for TGI follow
O=[N+]([O-])c1ccc(S(=O)(=O)N=Ic2ccccc2)cc1 : > 100 µM
Cc1cc(OCc2nnc3n2N=C(c2cc(F)c(Cl)cc2Cl)/C(=C/c2ccc(Cl)cc2)S3)ccc1Cl : > 100 µM
CCOC(=O)C(C)(C)Oc1ccc2c(C)c(-c3ccc(Cl)cc3)c(=O)oc2c1 : > 100 µM

Notebook entry, 786-0 renal assay: TGI of "CCOc1ccc(N2C(=O)/C(=C/c3ccc(N(CCC#N)CCC#N)cc3)N=C2c2cc([N+](=O)[O-])ccc2Cl)cc1" = ?
26.4 µM

Report TGI for "CCO/C=N/NC(=O)CSc1nc2ccc(I)cc2c(=O)n1Cc1ccccc1" tested on 786-0 renal.
> 100 µM

Given the entry CCOC(=O)NC1CN2CCC1CC2 (stereo not given) , what TGI was observed with 786-0 renal?
> 100 µM

Please tell me: TGI of "CC#C[P+](c1ccccc1)(c1ccccc1)c1ccccc1" , system 786-0 renal?
10.7 µM

Lab note: need TGI with 786-0 renal for entry N=c1ccn2c(n1)OC1C(O)C(CO)OC12 (stereo not given) , please look it up.
> 1000 µM

Missing value: TGI, 786-0 renal, entry COc1ccc(N2C(=O)CS(=O)(=O)C2c2cccc(Oc3ccccc3)c2)cc1 (stereo not given) . Fill in?
21.1 µM

Test system 786-0 renal; read-out TGI; what value for "CC1=C2CCCC2=C/C(=N/Nc2ccc([N+](=O)[O-])cc2[N+](=O)[O-])CC1" ?
> 100 µM

====

test system: OVCAR-4 ovarian; test: NCI tumour cell line growth inhibition, 48 h
// GI50 lookup, one value per entry

N#C/C=C(\c1ccc([N+](=O)[O-])cc1)n1nnc2cc(Cl)c(Cl)cc21 : 1.54 µM
CCN(CC)CCOc1ccc(/C=C2\CC3C4CC=C5C[C@@H](O)CC[C@]5(C)C4CC[C@]3(C)C2=O)cc1OC (stereo not given in full) : 18.8 µM
Nc1c(C(=O)Nc2cccc(Br)c2)sc2nc3c(cc12)C(=O)CCC3 : 28.5 µM
COc1cc(-c2nn(-c3cccc(NC(=O)Nc4ccc(Cl)c(Cl)c4)c3)cc2-c2ccncc2)ccc1Cl : 1.29 µM

Using the record for "Cc1ccc(Cl)cc1Nc1nc(C(F)(F)F)ccc1C(=O)N1CCN(c2cccc(Cl)c2)CC1" , report its GI50.
> 100 µM

Find the recorded GI50 belonging to "COc1ccc2[nH]cc(-c3nc(-c4c[nH]c5ncccc45)cs3)c2c1" and report it.
6.89 µM

For COc1cccc2c1C(=O)c1c(O)c3c(c(O)c1C2=O)CC(O)(/C(C)=N/NC(=O)CCC(=O)N/N=C(\C)C1(O)Cc2c(O)c4c(c(O)c2C(OC2CC(N)C(O)C(C)O2)C1)C(=O)c1c(OC)cccc1C4=O)CC3OC1CC(N)C(O)C(C)O1 (stereo not given) , what is its reported GI50?
0.885 µM

Could you share which GI50 value was measured for "COc1cccc(/C=N/[N-]C(=O)c2ccncc2)c1[O-].[Cu+2].[OH3+]" ?
78.6 µM

For "C[C@H]1Oc2cc(cnc2N)-c2c(nn(C)c2C#N)CN(C)C(=O)c2ccc(F)cc21" , what is its reported GI50?
> 100 µM

What value of GI50 has been recorded for this entry: "CCCCCCC[CH2][Sn]1([CH2]CCCCCCC)[O]C(=O)c2cccnc2[S]1"
> 100 µM
